B1: RAD51 (parent)
chain: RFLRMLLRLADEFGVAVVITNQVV

# Variants of: B1
# PROTOCOL SUMMARY: protein stability index of a GFP-peptide fusion (GPS, HEK-293T) (PSI 1-6); higher = more stable;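 note: lentivirally expressed fusions sorted by FACS into six bins by GFP to DsRed ratio, PSI derived from sequencing read proportions per bin multiplied by bin number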
# TEST PARAMETERS: c terminus: a fixed tail appended
Reported protein stability index by item:

Examples from the recorded data:
# CHANGE, OBSERVED PROPERTY, ASSAY RESULT
measured = [
    ("Q22D", "protein stability index", 1.65),
    ("G14F", "protein stability index", 4.07),
    ("V15C", "protein stability index", 3.16),
    ("L6W", "protein stability index", 2.54),
    ("L9E", "protein stability index", 1.65),
]

The reported value for "V24H" in terms of protein stability index is 3.01

The reported value for "D11I" in terms of protein stability index is 2.43

The reported value for "A16D" in terms of protein stability index is 3.29

The reported value for "R1N" in terms of protein stability index is 2.71

The reported value for "N21T" in terms of protein stability index is 2.02

The reported value for "E12C" in terms of protein stability index is 3.13

The reported value for "F2E" in terms of protein stability index is 1.51
